System: P388 leukemia ip, CD2F1 mice, survival T/C
Assay: NCI In Vivo Anticancer Drug Screen. Data for tumor model P388 Leukemia (intraperitoneal) in CD2F1 (CDF1) mice
Conditions: endpoint: median survival time; dose: 50.0 mg/kg/injection; schedule: Q01DX005 (ip); vehicle: Klucel (hydroxypropylcellulose) (HPC); higher = longer survival
Inconclusive results and toxic doses are left out.
# T/C values compiled below

Below: 5 compounds and their reported T/C.
Which measured T/C value corresponds to `CCOC(=O)N/N=C/c1ccc2c(c1)c1ccccc1n2CC` ? 90 % of control

Reported T/C for O=S1(=O)CC(N2CCOCC2)C2=C(O1)c1sc(-c3ccccc3)nc1CC2 (centres undefined) : what is it? 104 % of control

Given the compound `CSC(=S)N1CCN(C(=S)SC)C1=O` , what is its reported T/C? 108 % of control

Could you share which T/C value was measured for `O=C1c2ccccc2C(=O)C1C(=Nc1ccccc1Cl)c1ccccc1` ? 86 % of control

Item `COC(=O)C[CH2][Sn]([CH3])([CH3])[CH2]CC(=O)OC` has what recorded T/C? 104 % of control

Next:
Which T/C value belongs to C/C1=C/CCC(C)c2cc(OC(=O)c3ccccc3)c(C)cc2C1 (centres undefined) ? 99 % of control

Name the reported T/C value associated with the compound `CC1(C)S[C@@H]2[C@H](NC(=O)C3(N)CCCCC3)C(=O)N2[C@H]1C(=O)O` 103 % of control

Which value of T/C has been reported for `CCCCC1C(=S)N(c2ccccc2)N(c2ccccc2)C1=S` in the records? 101 % of control

Which T/C value belongs to O=C1Cc2ccccc2NC(c2ccccc2)C1S(=O)(=O)c1ccccc1 (centres undefined) ? 102 % of control
